target: NRAS G12C (Homo sapiens (Human), UniProt P01111+P62937, G12C); assay: Ras-Raf (BRAF RBD) disruption / FRET / MOA assay, NRAS G12C; type: biochemical; conditions: read-out: IC50* NRAS G12C FRET data
Sequence (P01111 whole entry G12C, one chain of several): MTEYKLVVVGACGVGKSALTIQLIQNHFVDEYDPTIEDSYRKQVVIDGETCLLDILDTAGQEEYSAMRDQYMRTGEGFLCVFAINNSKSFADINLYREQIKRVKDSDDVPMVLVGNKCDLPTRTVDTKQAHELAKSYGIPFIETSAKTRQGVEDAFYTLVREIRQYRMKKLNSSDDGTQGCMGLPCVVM
quantity: IC50

For orientation, consider the following solved cases.
### Prompt Retrieve IC50 on NRAS G12C (Homo sapiens (Human), UniProt P01111+P62937, G12C); query C=CC(=O)N1CC[C@H](C(=O)N(C)[C@H](C(=O)N[C@H]2Cc3cccc(c3)-c3ccc4c(c3)c(c(-c3cnn(C)c3CN(C)C)n4CC)CC(C)(C)COC(=O)[C@@H]3CCCN(N3)C2=O)C(C)C)C1 (relative stereo) [Example A329]
### Response > 10000 nM

### Prompt Retrieve IC50 on NRAS G12C (Homo sapiens (Human), UniProt P01111+P62937, G12C); query C=CC(=O)N1CC2CCC1CN2C(=O)N(C)[C@H](C(=O)N[C@H]1Cc2nc(cs2)-c2ccc3c(c2)c(c(-c2cccnc2[C@H](C)OC)n3CC)CC(C)(C)COC(=O)[C@@H]2CCCN(N2)C1=O)C(C)C [Example A420]
### Response 100 to 1000 nM

### Prompt Retrieve IC50 on NRAS G12C (Homo sapiens (Human), UniProt P01111+P62937, G12C); query CCn1c(-c2cccnc2[C@H](C)OC)c2c3cc(ccc31)-c1cccc(c1)C[C@H](NC(=O)[C@@H](COC1CN(C(=O)C#C[C@@H]3OCCCN3C)C1)C(C)C)C(=O)N1CCC[C@H](N1)C(=O)OCC(C)(C)C2 (atropisomer, axis not shown) [Example A648]
### Response 100 to 1000 nM

Moving on to the next compound.
### Prompt Retrieve IC50 on NRAS G12C (Homo sapiens (Human), UniProt P01111+P62937, G12C); query C=CC(=O)N(C)C[C@H]1CCN1C(=O)N(C)[C@H](C(=O)N[C@H]1Cc2nc(cs2)-c2ccc3c(c2)c(c(-c2cccnc2[C@H](C)OC)n3CC)CC(C)(C)COC(=O)[C@@H]2CCCN(N2)C1=O)C(C)C (atropisomer, axis not shown) [Example A369]
### Response 100 to 1000 nM

====

biological target: NRAS G12C (Homo sapiens (Human), UniProt P01111+P62937, G12C); experiment: Ras-Raf (BRAF RBD) disruption / FRET / MOA assay, NRAS G12C; assay type: biochemical; details: read-out: IC50* NRAS G12C FRET data
pIC50: −log10 of the molar value.
quantity: pIC50

For orientation, consider the following solved cases.
### Prompt Determine from records and report pIC50 for CC#CC(=O)N1CC(N(C)C(=O)N(C)[C@H](C(=O)N[C@H]2Cc3nc(cs3)-c3ccc4c(c3)c(c(-c3cccnc3[C@H](C)OC)n4CC)CC(C)(C)COC(=O)[C@@H]3CCCN(N3)C2=O)C(C)C)C1 (atropisomer, axis not shown)
### Response 6.00 to 7.00

### Prompt Determine from records and report pIC50 for C=CC(=O)N1CC[C@H](C(=O)N(C)[C@H](C(=O)N[C@H]2Cc3csc(n3)-c3ccc4c(c3)c(c(-c3cccnc3[C@H](C)OC)n4CC)CC(C)(C)COC(=O)[C@@H]3CCCN(N3)C2=O)C(C)C)C1 (atropisomer, axis not shown)
### Response 6.00 to 7.00

### Prompt Determine from records and report pIC50 for C=CC(=O)N1CCO[C@H]2CN(C(=O)N(C)[C@H](C(=O)N[C@H]3Cc4nc(cs4)-c4ccc5c(c4)c(c(-c4cccnc4[C@H](C)OC)n5CC)CC(C)(C)COC(=O)[C@@H]4CCCN(N4)C3=O)C(C)C)C[C@H]21 (atropisomer, axis not shown)
### Response 7.00 to 8.00

### Prompt Determine from records and report pIC50 for CCn1c(-c2cccnc2[C@H](C)OC)c2c3cc(ccc31)-c1csc(n1)C[C@H](NC(=O)[C@H](C(C)C)N(C)C(=O)N1C[C@@H]3CN(C(=O)C#CC(C)(C)N(C)C)CC[C@@H]31)C(=O)N1CCC[C@H](N1)C(=O)OCC(C)(C)C2 (atropisomer, axis not shown)
### Response 6.00 to 7.00

Moving on to the next compound.
### Prompt Determine from records and report pIC50 for C=CC(=O)N1CC[C@H](C(=O)N(C)[C@H](C(=O)N[C@H]2Cc3cc(sn3)-c3ccc4c(c3)c(c(-c3cccnc3[C@H](C)OC)n4CC)CC(C)(C)COC(=O)[C@@H]3CCCN(N3)C2=O)C(C)C)C1 (atropisomer, axis not shown)
### Response 6.00 to 7.00

====

target: NRAS Q61R (Homo sapiens (Human), UniProt P01111+P62937, Q61R); assay: Ras-Raf (BRAF RBD) disruption / FRET / MOA assay, NRAS Q61R; format: biochemical; conditions: NRAS Q61R; Ras-Raf disruption/FRET/MOA assay; read-out: IC50* NRAS Q61R FRET data
Sequence (P01111 whole entry Q61R): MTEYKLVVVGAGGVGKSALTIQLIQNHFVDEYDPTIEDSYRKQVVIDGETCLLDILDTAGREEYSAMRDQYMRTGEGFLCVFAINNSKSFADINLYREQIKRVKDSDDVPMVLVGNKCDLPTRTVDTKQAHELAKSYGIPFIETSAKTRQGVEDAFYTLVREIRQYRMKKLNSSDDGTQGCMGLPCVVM
Sequence (P62937 whole entry): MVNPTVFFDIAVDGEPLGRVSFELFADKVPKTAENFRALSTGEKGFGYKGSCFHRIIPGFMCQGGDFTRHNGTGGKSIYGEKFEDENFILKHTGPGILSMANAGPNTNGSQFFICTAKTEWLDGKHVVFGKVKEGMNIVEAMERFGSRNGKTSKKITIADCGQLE
Below is a list of entries, each paired with its recorded IC50 value.

### Prompt Retrieve IC50 on NRAS Q61R (Homo sapiens (Human), UniProt P01111+P62937, Q61R); query C=CC(=O)N1CCC[C@H]2CN(C(=O)N(C)[C@H](C(=O)N[C@H]3Cc4nc(cs4)-c4ccc5c(c4)c(c(-c4cccnc4[C@H](C)OC)n5CC)CC(C)(C)COC(=O)[C@@H]4CCCN(N4)C3=O)C(C)C)C[C@H]21 (atropisomer, axis not shown) [Example A618]
### Response 100 to 1000 nM

### Prompt Retrieve IC50 on NRAS Q61R (Homo sapiens (Human), UniProt P01111+P62937, Q61R); query CCn1c(-c2cccnc2[C@H](C)OC)c2c3cc(ccc31)-c1csc(n1)C[C@H](NC(=O)[C@H](C(C)C)N(C)C(=O)N1CCC3(CC1)CN(C(=O)/C=C/CN1CCOCC1)C3)C(=O)N1CCC[C@H](N1)C(=O)OCC(C)(C)C2 (atropisomer, axis not shown) [Example A669]
### Response 10 to 100 nM

### Prompt Retrieve IC50 on NRAS Q61R (Homo sapiens (Human), UniProt P01111+P62937, Q61R); query CC#CC(=O)N1CC2(CCN2C(=O)N(C)[C@H](C(=O)N[C@H]2Cc3nc(cs3)-c3ccc4c(c3)c(c(-c3cccnc3[C@H](C)OC)n4CC)CC(C)(C)COC(=O)[C@@H]3CCCN(N3)C2=O)C(C)C)C1 (atropisomer, axis not shown) [Example A655]
### Response 10 to 100 nM

Moving on to the next compound.
### Prompt Retrieve IC50 on NRAS Q61R (Homo sapiens (Human), UniProt P01111+P62937, Q61R); query C=CC(=O)C1CC[C@H](C(=O)N(C)[C@H](C(=O)N[C@H]2Cc3nsc(n3)-c3ccc4c(c3)c(c(-c3cccnc3[C@H](C)OC)n4CC)CC(C)(C)COC(=O)[C@@H]3CCCN(N3)C2=O)C(C)C)C1 (stereo partly shown) [Example A694]
### Response 1000 to 10000 nM

====

target: KRAS G13D (Homo sapiens (Human), UniProt P01116+P62937, G13D); assay: Ras-Raf (BRAF RBD) disruption / FRET / MOA assay, KRAS G13D; type: biochemical; details: read-out: IC50* KRAS G13D FRET data
Sequence (P01116-2 other isoform, or with tags, fused parts or gaps G13D, one chain of several): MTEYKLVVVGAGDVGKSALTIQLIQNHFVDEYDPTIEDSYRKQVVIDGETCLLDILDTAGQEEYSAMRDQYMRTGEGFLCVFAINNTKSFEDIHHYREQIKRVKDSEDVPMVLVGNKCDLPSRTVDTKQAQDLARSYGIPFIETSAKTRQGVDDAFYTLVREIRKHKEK
quantity: IC50

For orientation, consider the following solved cases.
### Prompt Determine from records and report IC50 for `CCn1c(-c2cccnc2COC)c2c3cc(ccc31)-c1cc(O)cc(c1)C[C@H](NC(=O)[C@@H](C(C)C)N(C)C(=O)[C@H]1CCN(C(=O)C#CCN3CCOCC3)C1)C(=O)N1CCC[C@H](N1)C(=O)OCC(C)(C)C2`
### Response > 10 µM

### Prompt Determine from records and report IC50 for C=CC(=O)N1CC[C@H](C(=O)N(C)[C@H](C(=O)N[C@H]2Cc3nc(cs3)-c3ccc4c(c3)c(c(-c3cccnc3[C@H](C)OC)n4CC(F)(F)F)CC(C)(C)COC(=O)[C@@H]3CCCN(N3)C2=O)C(C)C)C1 (atropisomer, axis not shown)
### Response 1 to 10 µM

### Prompt Determine from records and report IC50 for CCn1c(-c2cccnc2[C@H](C)OC)c2c3cc(ccc31)-c1csc(n1)C[C@H](NC(=O)CCOC1CN(C(=O)C#CC(C)(C)N3CCC3)C1)C(=O)N1CCC[C@H](N1)C(=O)OCC(C)(C)C2 (atropisomer, axis not shown)
### Response > 10 µM

### Prompt Determine from records and report IC50 for `CCn1c(-c2cccnc2[C@H](C)OC)c2c3cc(ccc31)-c1cccc(c1)C[C@H](NC(=O)[C@H](C(C)C)N(C)C(=O)[C@@H]1CCN(C(=O)C#CC(C)(C)N3CCC3)C1)C(=O)N1CCC[C@H](N1)C(=O)OCC(C)(C)C2`
### Response 1 to 10 µM

### Prompt Determine from records and report IC50 for CCn1c(-c2cccnc2[C@H](C)OC)c2c3cc(ccc31)-c1csc(n1)C[C@H](NC(=O)[C@H](C(C)C)N(C)C(=O)N1CC(N(C)C(=O)/C=C/CN(C)C)C1)C(=O)N1CCC[C@H](N1)C(=O)OCC(C)(C)C2 (atropisomer, axis not shown)
### Response 0.1 to 1 µM

### Prompt Determine from records and report IC50 for C=CC(=O)NC[C@@H]1CCN1C(=O)N(C)[C@H](C(=O)N[C@H]1Cc2nc(cs2)-c2ccc3c(c2)c(c(-c2cccnc2[C@H](C)OC)n3CC)CC(C)(C)COC(=O)[C@@H]2CCCN(N2)C1=O)C(C)C (atropisomer, axis not shown)
### Response 1 to 10 µM

Moving on to the next compound.
### Prompt Determine from records and report IC50 for CCn1c(-c2cccnc2[C@H](C)OC)c2c3cc(ccc31)-c1csc(n1)C[C@H](NC(=O)[C@H](C(C)C)N(C)C(=O)N1CCN(C(=O)/C=C/CN(C)C)C3(CC3)C1)C(=O)N1CCC[C@H](N1)C(=O)OCC(C)(C)C2 (atropisomer, axis not shown)
### Response 0.1 to 1 µM

Measured values drawn from patent US11566007B2 for this set.
